Data credit: the supplement of paper PMC13380429

- System: Vero E6
- assay text: cell viability relative to DMSO; higher = less toxic
- condition label: 72 h; 10000 nM
The reader will find reported cell viability values listed item by item below.
API: value field is a number in %; no unit string.

O=C(O)CC[C@H]1CC[C@@](c2cc(F)ccc2F)(S(=O)(=O)c2ccc(Cl)cc2)CC1 : 103

[Q] Entry COc1ccc(COc2cc3oc(=O)c4cc(C(C)O)ccc4c3cc2OC)cc1 (stereo not given) : reported cell viability = ?
[A] 99.7

[Q] Note, next up: `O=S(=O)(N[C@H](CO)C(C(F)(F)F)C(F)(F)F)c1ccc(Cl)s1`
[A] 84.6

[Q] Lookup CCC(=O)NC1CCc2cccc(OC)c2C1 (stereo not given)
[A] 106

[Q] Same for `NNC(=O)CN1C(=O)CN=C(c2ccccc2)c2cc(Br)ccc21`
[A] 102
